# experimentalSystem: Free fatty acid receptor 4 (Mus musculus)
# procedureDetails: Agonist activity at mouse GPR120 expressed in CHOK1 cells measured after 60 mins by IP1-HTRF assay relative to basal level
# Format: functional, cell-based
# Parameters: concentration or dose not given beside the values
# conditionNotes: CHO-K1
observationType: Activity (%)

O=C(O)CCCOc1c(F)cc(-c2cc(OC(F)(F)F)ccc2F)cc1F: 75
O=C(O)CCCOc1ccc(-c2cc(Oc3cccc(F)c3)ccc2Cl)cc1: 70
Cc1cc(-c2cc(OC(F)(F)F)ccc2F)cc(C)c1OCCCC(=O)O: 86
O=C(O)CCC1Cc2cc(-c3cc(OC(F)(F)F)ccc3F)ccc2O1 (stereo in doubt; 44): 68
O=C(O)CCCOc1ccc(-c2ccccc2C(F)(F)F)cc1: 15
CC(Cc1cc2cc(-c3cc(OC(F)(F)F)ccc3F)ccc2o1)C(=O)O (racemic): 44
O=C(O)CCCOc1ccc(-c2cccc(Oc3ccccc3)c2)cc1: 58

[I] O=C(O)CCCOc1ccc(-c2ccccc2Oc2ccccc2)cc1
[II] O=C(O)CCc1cc2cc(-c3cc(Cl)cc(OC4CCC4)c3)ccc2o1
[III] O=C(O)CCCOc1ccc(-c2cc(Oc3ccccc3)ccc2F)cc1
Task: List items by Activity in falling order. Reply format: the labels, ordered as requested.
Result: III, II, I
(III: 80%, II: 55%, I: 21%)

====

# procedureDetails: Protein binding in mouse plasma
# Assay type: ADME, cell-free
# conditionNotes: read-out: PPB (converted)
observationType: fraction unbound

O=C(O)CCc1cc2cc(-c3cc(OC(F)(F)F)ccc3F)ccc2o1: 0.002
O=C(O)CCCOc1ccc(-c2cc(OC(F)(F)F)ccc2Cl)cc1: 0.049

[A] O=C(O)CCCOc1ccc(-c2noc3ccccc23)c(Cl)c1Cl
[B] Cc1cc(-c2cc(OC(F)(F)F)ccc2Cl)cc(C)c1OCCCC(=O)O
Task: Kindly identify which of A and B has the larger recorded fraction unbound value. Could you answer with the label of the item you picked?
Result: A
(A: 0.042, B: 0.002)

====

# procedureDetails: Oral bioavailability in mouse at 10 mg/kg
# Type: ADME, organism-based
# conditionNotes: in vivo
observationType: bioavailability (%)

Previously resolved entries follow.
O=C(O)CCc1cc2cc(-c3cc(OC(F)(F)F)ccc3F)ccc2o1: 100
O=C(O)CCCOc1ccc(-c2cc(OC(F)(F)F)ccc2Cl)cc1: 45

[P] Cc1cc(-c2cc(OC(F)(F)F)ccc2Cl)cc(C)c1OCCCC(=O)O
[Q] O=C(O)CCCOc1ccc(-c2noc3ccccc23)c(Cl)c1Cl
Task: Please compare: P and Q . Report which one has the smaller bioavailability value. Could you answer with the label of the item you picked?
Result: P

====

# experimentalSystem: UniProt P11712
# Sequence (P11712 whole entry): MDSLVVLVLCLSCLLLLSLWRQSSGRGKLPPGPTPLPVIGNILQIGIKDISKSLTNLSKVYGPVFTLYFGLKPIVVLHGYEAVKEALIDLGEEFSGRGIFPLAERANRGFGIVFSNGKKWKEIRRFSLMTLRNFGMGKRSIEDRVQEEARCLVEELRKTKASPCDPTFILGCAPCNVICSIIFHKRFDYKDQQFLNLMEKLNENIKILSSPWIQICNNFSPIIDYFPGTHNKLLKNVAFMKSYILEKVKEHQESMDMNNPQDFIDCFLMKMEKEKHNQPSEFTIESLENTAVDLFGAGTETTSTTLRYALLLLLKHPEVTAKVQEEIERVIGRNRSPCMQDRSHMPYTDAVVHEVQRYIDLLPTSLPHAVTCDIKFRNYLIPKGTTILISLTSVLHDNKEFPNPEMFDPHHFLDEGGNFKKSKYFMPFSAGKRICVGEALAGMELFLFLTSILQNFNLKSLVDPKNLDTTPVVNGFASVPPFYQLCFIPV
observationType: pIC50
For clarity, pIC50 is expressed as the negative log10 of concentration in mol/L.

Task: Request: pIC50, test system UniProt P11712, entry O=C(O)CCc1cc2cc(-c3cc(OC(F)(F)F)ccc3F)ccc2o1
Result: 4.42

====

# experimentalSystem: Free fatty acid receptor 4 (Mus musculus, UniProt Q7TMA4)
# procedureDetails: Agonist activity at mouse GPR120 expressed in CHOK1 cells measured after 60 mins by IP1-HTRF assay
observationType: EC50 (nM)

Previously resolved entries follow.
Cc1cc(OC2CCC2)cc(-c2ccc3oc(CCC(=O)O)cc3c2)c1: 28
CCOc1ccc(F)c(-c2ccc(OCCCC(=O)O)cc2)c1: 140
O=C(O)CCc1cc2cc(-c3cccc(OC4CCC4)c3)ccc2o1: 35
Cc1cc(-c2cc(OC(F)(F)F)ccc2Cl)ccc1OCCCC(=O)O: 131
Fc1ccc(OC(F)(F)F)cc1-c1ccc2oc(CCc3nn[nH]n3)cc2c1: 316

[a] Cc1cc(-c2cc(OC(F)(F)F)ccc2F)cc(C)c1OCCCC(=O)O
[b] O=C(O)CCCOc1ccc(-c2ccccc2C(F)(F)F)cc1
[c] O=C(O)CCCOc1ccc(-c2cc(Oc3cccc(F)c3)ccc2F)cc1
Task: Endpoint returns the given compounds ordered by ascending EC50. Reply format: the labels, ordered as requested.
Result: c, a, b

====

# experimentalSystem: Free fatty acid receptor 4 (Mus musculus)
# procedureDetails: Agonist activity at mouse GPR120 expressed in CHOK1 cells measured after 60 mins by IP1-HTRF assay
observationType: EC50 (µM)

Previously resolved entries follow.
O=C(O)CCCOc1ccc(-c2cc(Oc3cccnc3)ccc2Cl)cc1: 0.034
O=C(O)CCc1cc2cc(-c3cc(C(=O)C4CC4)ccc3F)ccc2o1: 0.022

[P] COc1cccc(Oc2cccc(-c3ccc(OCCCC(=O)O)cc3)c2)c1
[Q] O=C(O)CCCOc1ccc(-c2noc3ccccc23)c(Cl)c1Cl
[R] O=C(O)CCC1Cc2cc(-c3cc(OC(F)(F)F)ccc3F)ccc2O1 (stereo in doubt; 45)
Task: Endpoint returns the given compounds ordered by ascending EC50. Reply format: the labels, ordered as requested.
Result: R, P, Q
(R: 0.106 µM, P: 0.264 µM, Q: 0.487 µM)

====

# experimentalSystem: Free fatty acid receptor 4 (Mus musculus)
# procedureDetails: Agonist activity at mouse GPR120 expressed in CHOK1 cells measured after 60 mins by IP1-HTRF assay
pEC50: −log10 of the molar value.
observationType: pEC50

CCOc1ccc(Cl)c(-c2ccc(OCCCC(=O)O)cc2)c1: 7.49
O=C(O)CCCOc1ccc(-c2ccccc2Oc2ccccc2)cc1: 6.38
O=C(O)CCCOc1ccc(-c2cc(OC(F)(F)F)ccc2F)cc1: 6.36

[P] CC(CC(=O)O)c1cc2cc(-c3cc(OC(F)(F)F)ccc3F)ccc2o1 (racemic)
[Q] O=C(O)CCCOc1ccc(-c2cc(Oc3ccccc3)ccc2F)cc1
Task: Please compare: P and Q . Report which one has the smaller pEC50 value. Could you answer with the label of the item you picked?
Result: P
(P: 7.13, Q: 7.54)

====

# experimentalSystem: Free fatty acid receptor 1 (Homo sapiens)
# Sequence (O14842 whole entry): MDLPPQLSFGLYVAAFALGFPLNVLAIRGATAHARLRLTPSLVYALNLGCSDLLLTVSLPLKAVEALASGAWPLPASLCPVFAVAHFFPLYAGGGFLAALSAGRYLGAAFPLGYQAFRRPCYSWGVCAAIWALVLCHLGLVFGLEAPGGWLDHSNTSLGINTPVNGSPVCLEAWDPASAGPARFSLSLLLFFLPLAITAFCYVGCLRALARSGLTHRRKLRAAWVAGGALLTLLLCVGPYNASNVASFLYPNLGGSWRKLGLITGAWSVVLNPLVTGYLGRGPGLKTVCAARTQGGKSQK
# procedureDetails: Agonist activity at human GPR40 measured after 60 mins by IP1-HTRF assay
pEC50: −log10 of the molar value.
observationType: pEC50

O=C(O)CCC1Cc2cc(-c3cc(OC(F)(F)F)ccc3F)ccc2O1 (stereo in doubt; 44): 5.86

[P] O=C(O)CCCOc1ccc(-c2cc(OC(F)(F)F)ccc2Cl)cc1
[Q] Cc1cc(-c2cc(OC(F)(F)F)ccc2Cl)ccc1OCCCC(=O)O
[R] Cc1cc(OC2CCC2)cc(-c2ccc3oc(CCC(=O)O)cc3c2)c1
[S] O=C(O)CCc1cc2cc(-c3cc(OC(F)(F)F)ccc3F)ccc2o1
Task: List items by pEC50 in falling order. Reply format: the labels, ordered as requested.
Result: P, S, R, Q
(P: 5.98, S: 5.74, R: 5.53, Q: 5.17)

====

# procedureDetails: Drug uptake in wild-type mouse blood at 30 mg/kg, po
# Type: ADME, organism-based
# conditionNotes: in vivo, read-out: Drug uptake
observationType: concentration (µM)
Write down the numeric answer in µM and omit the unit.

Task: Please report the recorded concentration for O=C(O)CCc1cc2cc(-c3cc(OC(F)(F)F)ccc3F)ccc2o1 .
Result: 33.4

====

# experimentalSystem: Free fatty acid receptor 1 (Homo sapiens)
# procedureDetails: Agonist activity at human GPR40 measured after 60 mins by IP1-HTRF assay
pEC50: −log10 of the molar value.
observationType: pEC50

CCOc1ccc(Cl)c(-c2ccc(OCCCC(=O)O)cc2)c1: 5.95
O=C(O)CCC1Cc2cc(-c3cc(OC(F)(F)F)ccc3F)ccc2O1 (stereo in doubt; 45): 5.87

[I] O=C(O)CCc1cc2cc(-c3cccc(OC(F)(F)F)c3)ccc2o1
[II] O=C(O)CCCOc1ccc(-c2cc(Oc3cccc(F)c3)ccc2F)cc1
Task: Kindly identify which of I and II has the larger recorded pEC50 value. Could you answer with the label of the item you picked?
Result: I

====

# experimentalSystem: UniProtKB Q7TMA4
# Sequence (Q7TMA4 whole entry): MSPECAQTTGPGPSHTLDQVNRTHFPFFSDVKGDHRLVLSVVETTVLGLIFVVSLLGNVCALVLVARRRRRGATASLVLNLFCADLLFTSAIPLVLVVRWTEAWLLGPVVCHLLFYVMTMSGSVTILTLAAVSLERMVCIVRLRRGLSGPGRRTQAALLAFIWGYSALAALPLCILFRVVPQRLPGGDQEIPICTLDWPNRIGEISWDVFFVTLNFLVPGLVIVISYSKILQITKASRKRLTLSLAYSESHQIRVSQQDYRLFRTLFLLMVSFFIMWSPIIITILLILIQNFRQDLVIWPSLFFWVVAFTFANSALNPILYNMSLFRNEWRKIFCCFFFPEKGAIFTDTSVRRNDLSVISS
# procedureDetails: Agonist activity at mouse GPR120 expressed in CHOK1 cells measured after 60 mins by IP1-HTRF assay
pEC50: −log10 of the molar value.
observationType: pEC50

Cc1cc(-c2cc(OC(F)(F)F)ccc2Cl)cc(C)c1OCCCC(=O)O: 7.80
O=C(O)CCCOc1ccc(-c2cc(OC(F)(F)F)ccc2Cl)cc1: 8.05
O=C(O)CCc1cc2cc(-c3cc(OC(F)(F)F)ccc3F)ccc2o1: 7.37
O=C(O)CCC1Cc2cc(-c3cc(OC(F)(F)F)ccc3F)ccc2O1 (stereo in doubt; 44): 7.51
O=C(O)CCCOc1ccc(-c2cc(Oc3cccc(F)c3)ccc2Cl)cc1: 7.47

[a] O=C(O)CCc1cc2cc(-c3cc(OC(F)(F)F)ccc3Cl)ccc2o1
[b] O=C(O)CCCOc1ccc(-c2cc(OC(F)(F)F)ccc2Cl)c(F)c1
[c] O=C(O)CCCOc1ccc(-c2ccccc2OC(F)(F)F)cc1
[d] CC(Cc1cc2cc(-c3cc(OC(F)(F)F)ccc3F)ccc2o1)C(=O)O (racemic)
Task: List items by pEC50 in falling order. Reply format: the labels, ordered as requested.
Result: a, b, d, c

Where do the numbers come from? From ChEMBL document CHEMBL3867472.
